The values you see were collected from patent US11780845B2.

Give measured pIC50 for each item. Keep answers brief.
molecular target: FGFR2 (Homo sapiens (Human), UniProt P21802); assay: FGFR2 Biochemical Caliper Assay
Sequence (P21802 22-821): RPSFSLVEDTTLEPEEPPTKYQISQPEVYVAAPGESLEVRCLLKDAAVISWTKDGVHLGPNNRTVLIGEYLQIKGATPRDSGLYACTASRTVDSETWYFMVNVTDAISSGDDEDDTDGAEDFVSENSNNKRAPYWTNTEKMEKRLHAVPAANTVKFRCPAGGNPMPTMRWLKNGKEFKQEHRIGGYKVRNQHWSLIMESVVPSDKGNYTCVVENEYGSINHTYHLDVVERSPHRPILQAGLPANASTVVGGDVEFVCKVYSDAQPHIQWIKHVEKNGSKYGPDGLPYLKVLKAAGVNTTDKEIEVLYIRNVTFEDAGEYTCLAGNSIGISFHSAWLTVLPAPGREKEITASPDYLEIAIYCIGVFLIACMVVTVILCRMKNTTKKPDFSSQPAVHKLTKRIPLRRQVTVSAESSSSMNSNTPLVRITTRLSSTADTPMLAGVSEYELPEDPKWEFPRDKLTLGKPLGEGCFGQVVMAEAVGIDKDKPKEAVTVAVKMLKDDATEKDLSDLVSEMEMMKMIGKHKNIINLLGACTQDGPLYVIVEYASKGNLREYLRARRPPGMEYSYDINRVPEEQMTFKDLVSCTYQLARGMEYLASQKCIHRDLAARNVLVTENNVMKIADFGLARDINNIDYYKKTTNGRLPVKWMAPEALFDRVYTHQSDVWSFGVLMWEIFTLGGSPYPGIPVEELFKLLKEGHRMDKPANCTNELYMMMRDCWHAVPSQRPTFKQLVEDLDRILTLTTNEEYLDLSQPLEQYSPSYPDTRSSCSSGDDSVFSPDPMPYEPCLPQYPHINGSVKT
pIC50: −log10 of the molar value.

Sample records with pIC50:
[
  {
    "compound": "C=C(C)C(=O)Nc1ccc(-c2c(-c3ccc(Oc4ccc(Cl)cn4)c(O)c3)c3c(N)ncnc3n2C)cc1",
    "systemName": "FGFR2 (Homo sapiens (Human), UniProt P21802)",
    "pIC50": "4.00 to 6.00"
  },
  {
    "compound": "C=CC(=O)N1CCC(c2c(-c3ccc(N(C)C(C)=O)cc3)c3c(N)ncnc3n2C)C1 (stereo not drawn)",
    "systemName": "FGFR2 (Homo sapiens (Human), UniProt P21802)",
    "pIC50": "4.00 to 6.00"
  },
  {
    "compound": "C=C(C)C(=O)Nc1ccc(-c2c(-c3ccc(Oc4cccc(C)n4)cc3)c3c(N)ncnc3n2C)cc1COC",
    "systemName": "FGFR2 (Homo sapiens (Human), UniProt P21802)",
    "pIC50": "6.60 to 7.00"
  }
]

Fill in pIC50 for each of the 3 compounds listed.
1. C=C(C)C(=O)Nc1ccc(-c2c(-c3ccc(C(=O)N4CCCC4)nc3)c3c(N)ncnc3n2C)cc1
2. C=CC(=O)N1CCC(c2c(-c3ccc(C(=O)N4CCCCC4)cc3)c3c(N)ncnc3n2C)C1 (stereo not drawn)
3. C=C(C)C(=O)Nc1ccc(-c2c(-c3ccc(C(=O)N4CCCC4)cn3)c3c(N)ncnc3n2C)cc1

## Output
1: 4.00 to 6.00; 2: > 7.00; 3: > 7.00
